- Tested on: MDA-MB-231 breast
- MEASUREMENT NOTES: NCI-60 one-dose screen, 48 h (100 = growth as untreated, 0 = no growth, -100 = all killed)
- MEASUREMENT CONDITIONS: 10 µM unless noted
About 83,000 compounds went through this panel and 20% of them were active in at least one assay; those are over-represented in the sample as a whole. The source made the active and inactive calls. The calls were made as follows: active = growth percent below 10; inactive = the rest.
PARAMETER MEASURED: growth

Record excerpt, results attached:
>  <STRUCTURE AS SMILES>
COc1ccc(-c2conc2-n2nc(-c3ccccc3)nc2-c2ccccc2)cc1

>  <RESULT>
94% (inactive)

$$$$
>  <STRUCTURE AS SMILES>
C[C@H](NC(=O)c1snnc1C1CC1)c1c(F)cccc1Cl

>  <RESULT>
105% (inactive)

$$$$
>  <STRUCTURE AS SMILES>
O=C(Nc1ccncc1)C(=O)c1cn(S(=O)(=O)c2cccc(Cl)c2F)c2ccccc12

>  <RESULT>
78.2% (inactive)

$$$$

Next item in the queue.
Name the recorded growth of the compound listed here: `CS(=O)(=O)c1ccc(Cl)c([N+](=O)[O-])c1`
109% (inactive)

====

- System: HOP-62 NSCLC
- MEASUREMENT NOTES: NCI-60 one-dose screen, 48 h (100 = growth as untreated, 0 = no growth, -100 = all killed)
- MEASUREMENT CONDITIONS: 10 µM unless noted
The panel holds about 83,000 compounds, 20% with a hit somewhere; the sample as a whole holds those more often.
Hi there, I'd appreciate the recorded growth for every entry that follows.
Answers are plain numbers, in %.

Guide cases for growth, answers given:
>  <MOLECULE>
COc1cccc(-c2nc3sccn3c2-c2ccnc(NCCN3CCCNS3(=O)=O)n2)c1

>  <growth / %>
123

$$$$
>  <MOLECULE>
O=C1N(Cc2ccccc2Cl)c2ccccc2C12NN=C(c1ccccc1)S2 (stereo not drawn)

>  <growth / %>
61.2

$$$$
>  <MOLECULE>
CC(=O)O[C@H]1CC[C@]2(C)[C@H]3CC=C4[C@@H]5CC(C)(C)CC[C@]5(C(=O)OCC(COC(=O)C(Cl)Cl)(COC(=O)C(Cl)Cl)NC(=O)C(Cl)Cl)CC[C@@]4(C)[C@]3(C)CC[C@H]2C1(C)C

>  <growth / %>
79

$$$$
>  <MOLECULE>
O=C1C(Cl)=C(Nc2cccc3ccccc23)C(=O)c2ccccc21

>  <growth / %>
84.9

$$$$
>  <MOLECULE>
O=C(Nc1ccc([N+](=O)[O-])cc1)c1cc2ccccc2cc1O

>  <growth / %>
13

$$$$

Items follow; give growth for each.
1. Oc1ccc(-c2nnc3c4[nH]ccc4ncn23)cc1
2. CC(=O)OC[C@H]1O[C@@H](n2c(=O)cc(N)[nH]c2=O)C(OC(C)=O)[C@@H]1OC(C)=O (stereo partly drawn)
3. COc1ccc(NC(=O)c2sc3c(=O)[nH]c(C(F)(F)F)nc3c2C)cc1
4. CC(C)(C)[Si](C)(C)OC1[C@@H](O[Si](C)(C)C(C)(C)C)[C@@H](CNC(=O)NC(=O)NC(=O)CCl)O[C@H]1n1cnc2c(NC(=O)Nc3ccccc3)ncnc21 (stereo partly drawn)
5. COc1cc2ccc(C(C)=O)cc2cc1OC
6. OC(CCCCCCCCC(O)CN1CCc2ccccc2C1)CN1CCc2ccccc2C1 (stereo not drawn)

1: 100; 2: 95; 3: 107; 4: 36.7; 5: 81.8; 6: 103

// batch mode: one growth value per listed entry
1. CC1=C(/C=C/C(C)=C/C=C(C(=O)O)\C(C)=C\C(=O)O)C(C)(C)CCC1
2. CCCCCCCOc1cccc(/C=C2\N=C3SCCCN3C2=O)c1
3. CCN(CC)CCCCCCCCNc1c2ccc(Cl)cc2nc2ccc(OC)cc12
4. CC(C)c1ccc2c(c1)CCC1C2CCCC1(C)NCc1ccccc1 (stereo not drawn)
5. CCN(CC)CCNC(=O)n1cc(-c2ccncc2)c(-c2cc(Cl)cc(OC)c2)n1
6. CCOC(=O)C1=C(C)NC(=S)NC1c1ccccc1 (stereo not drawn)
7. Cc1c(C(=O)Nc2ccccc2F)sc2c(=O)[nH]cnc12

1. 108
2. 108
3. -67.8
4. 91
5. 35.9
6. 101
7. 96.1
